- Test details: AUC in Han Wistar rat at 0.5 mg/kg, iv by LC-MS/MS analysis
- Type: ADME, organism-based
- Parameters: dose 0.5 mg/kg, route intravenous
- Condition label: plasma
Metric: AUC (ng·h/mL)

1) CN[C@@H](C)C(=O)N[C@H](C(=O)N1CCC[C@H]1C(=O)N[C@H]1c2ccccc2C[C@H]1OCC#CC#CCO[C@@H]1Cc2ccccc2[C@@H]1NC(=O)[C@@H]1CCCN1C(=O)[C@@H](NC(=O)[C@H](C)NC)C1CCCCC1)C1CCCCC1 ... 166
2) CN[C@@H](C)C(=O)N[C@H](C(=O)N1CCC[C@H]1C(=O)N[C@H]1c2ccccc2C[C@H]1NC(=O)c1ccc(C(=O)N[C@@H]2Cc3ccccc3[C@@H]2NC(=O)[C@@H]2CCCN2C(=O)[C@@H](NC(=O)[C@H](C)NC)C2CCCCC2)cc1)C1CCCCC1 ... 230

The measured values listed here are drawn from ChEMBL document CHEMBL3108710.
